molecular target: Cytochrome P450 2C9 (Homo sapiens) (UniProt P11712); test: Cytochrome panel assay with activity outcomes; conditions: recombinant CYP, pro-luciferin dealkylation, luminescence, p450-cyp2c9; series mostly up to 57.1 µM
Sequence (P11712 whole entry, looked up): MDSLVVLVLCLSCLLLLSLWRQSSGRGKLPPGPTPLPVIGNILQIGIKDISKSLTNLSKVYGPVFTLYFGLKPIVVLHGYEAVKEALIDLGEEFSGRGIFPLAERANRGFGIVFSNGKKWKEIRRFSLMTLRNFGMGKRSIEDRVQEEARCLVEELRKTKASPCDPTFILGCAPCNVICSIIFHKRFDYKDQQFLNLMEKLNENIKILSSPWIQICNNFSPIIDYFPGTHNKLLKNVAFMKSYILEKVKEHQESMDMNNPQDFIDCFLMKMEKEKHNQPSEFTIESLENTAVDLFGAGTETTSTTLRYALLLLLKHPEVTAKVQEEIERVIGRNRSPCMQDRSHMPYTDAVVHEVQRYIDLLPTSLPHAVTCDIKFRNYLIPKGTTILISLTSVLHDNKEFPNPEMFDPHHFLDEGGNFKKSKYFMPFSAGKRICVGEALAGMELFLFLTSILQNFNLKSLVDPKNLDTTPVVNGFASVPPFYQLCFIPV
In all, about 16,000 compounds went through this assay and about 4,000 (25%) were called active. About 26% were inconclusive and are not listed. The call rests on the fitted dose curve; in most records, active means well fitted curve in the direction sought with a large enough effect; inconclusive means small, poorly fitted or top-dose-only effect, or effect the other way; inactive means no such curve, though single readings can be large or run the other way. Only a sample is shown.
Labels: TRUE for active, FALSE for inactive

Molecule | Class
CCOC(=O)c1sc2nc3c(cc2c1N)COC(C)(CC)C3 (stereo unspecified) | TRUE
CCC(=O)c1ccc(OCC(O)CN(CCc2ccccc2)Cc2ccccc2)cc1 (stereo unspecified) | TRUE
O=C(OC(C(=O)O)C(OC(=O)c1ccccc1)C(=O)NCc1ccccc1)c1ccccc1 (stereo unspecified) | FALSE
CCN(CC)CC#CCC(C)(c1ccccc1)c1ccccc1 | TRUE
CCCCNc1c(C(=O)OCC)c(C)nc2c1cnn2CC | FALSE
C/C(=N\Nc1nnc(C)c(=O)[nH]1)C(=O)O | FALSE
Cc1cc(=O)[nH]c2c1c(C)nn2C1CCOC(C)(C)C1 (stereo unspecified) | FALSE
COC(=O)C1CCC(C)(C(=O)Nc2ccccc2)C1(C)C (stereo unspecified) | TRUE
CCc1ccc(N(C(=O)c2csnn2)C(C(=O)NCc2ccccc2)c2ccco2)cc1 (stereo unspecified) | TRUE
COCCN(C(=O)c1ccco1)c1nnc(-c2ccc(OC)cc2)s1 | TRUE
COC(=O)C1CSC(C(=O)OC)N1C(=O)Nc1ccccc1 (stereo unspecified) | FALSE
O=C(NCc1cccnc1)c1sc2cc(Cl)ccc2c1Cl | TRUE
O=C(CN1CCCCC1)Nc1cccc([N+](=O)[O-])c1 | FALSE
CC1(C)SC(=S)N(Cc2ccc3c(c2)OCO3)C1N(O)C(=O)NC1CCCCC1 (stereo unspecified) | TRUE
CNCCCC1c2ccccc2C=Cc2ccccc21 | FALSE
Cc1ccc(N(C(=O)c2csnn2)C(C(=O)NC(C)(C)C)c2cccs2)cc1 (stereo unspecified) | FALSE
